Target: Interleukin-8 (Homo sapiens) (UniProt P10145)
Sequence (P10145 whole entry, looked up): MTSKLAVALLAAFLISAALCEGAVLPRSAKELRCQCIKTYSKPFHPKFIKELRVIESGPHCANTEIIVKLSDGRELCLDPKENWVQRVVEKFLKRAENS
Test: inhibitors of NFkB activation in CF airway cells, SAR follow-up, KKLEB cells, panel, IL8 HTRF, NFkB-GFP (AID 651592);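 note: immortalized cystic fibrosis airway epithelial KKLEB cells with an NF-kB GFP reporter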
Settings: PAF/TNFa-induced NFkB-GFP / IL8 HTRF, IL8, PAF-induced, run 2
METRIC_NAME: IC50

TEST_SMILES | RESULT
O=C(Nc1ccc(N2CCN(C(=O)c3ccccc3F)CC2)cc1)c1cccc(Br)c1 | > 66 µM
CCOc1ccc(NCc2cc3c(C)nn(-c4ccccc4)c3[nH]c2=O)cc1 | 13.9 µM
CCOc1ccc(NCc2cc3c(-c4ccc(OC)c(OC)c4)nn(-c4ccccc4)c3[nH]c2=O)cc1 | 1.71 µM
Cc1ccc(NCc2cc3c(C(C)(C)C)nn(-c4ccccc4)c3[nH]c2=O)cc1 | 3.24 µM
O=C(Nc1ccc(N2CCN(C(=O)c3ccccc3)CC2)cc1)c1cccc(Br)c1 | 4.44 µM
O=C(Nc1ccc(N2CCN(C(=O)c3ccc(F)cc3)CC2)cc1)c1cncc(Br)c1 | 9.88 µM
O=C(Nc1ccc(N2CCN(C(=O)c3ccccc3)CC2)cc1)c1ccncc1 | > 66 µM
O=C(Nc1ccc(N2CCN(C(=O)c3ccc(F)cc3)CC2)cc1)c1cccnc1 | > 66 µM
O=C(Nc1ccc(N2CCN(C(=O)c3ccc(F)cc3)CC2)cc1)c1ccccc1 | > 66 µM
O=C(Nc1ccc(N2CCN(C(=O)c3ccccc3)CC2)cc1)c1cc(Br)cc(Br)c1 | > 66 µM
CCOc1ccc(NCc2cc3c(-c4ccc(F)cc4)nn(-c4ccccc4)c3[nH]c2=O)cc1 | 0.974 µM
O=C(Nc1ccc(N2CCN(C(=O)c3ccccc3F)CC2)cc1)c1ccccc1 | > 66 µM
O=C(Nc1ccc(N2CCN(C(=O)c3ccccc3Cl)CC2)cc1)c1ccccc1 | > 66 µM
O=C(Nc1ccc(N2CCN(C(=O)c3ccc(F)cc3)CC2)cc1)c1cccc(Br)c1 | > 66 µM
O=C(Nc1ccc(N2CCN(C(=O)c3ccccc3Cl)CC2)cc1)c1ccccn1 | 12.5 µM
O=C(Nc1ccc(N2CCN(C(=O)c3ccccc3Cl)CC2)cc1)c1ccncc1 | > 66 µM
O=C(Nc1ccc(N2CCN(C(=O)c3ccccc3Cl)CC2)cc1)c1cccc(Br)c1 | > 66 µM
O=C(Nc1ccc(N2CCN(C(=O)c3ccccc3F)CC2)cc1)c1ccccn1 | > 66 µM
CCOc1ccc(NCc2cc3c(C(C)(C)C)nn(-c4ccc(Cl)cc4)c3[nH]c2=O)cc1 | 0.248 µM
O=C(Nc1ccc(N2CCN(C(=O)c3ccccc3F)CC2)cc1)c1cc(Br)cc(Br)c1 | > 66 µM
O=C(Nc1ccc(N2CCN(C(=O)c3ccc(F)cc3)CC2)cc1)c1ccccn1 | > 66 µM
Cc1ccc(CNCc2cc3c(C(C)(C)C)nn(-c4ccccc4)c3[nH]c2=O)cc1 | 12.8 µM
O=C(Nc1ccc(N2CCN(C(=O)c3ccccc3Cl)CC2)cc1)c1cc(Br)cc(Br)c1 | > 66 µM
O=C(Nc1ccc(N2CCN(C(=O)c3ccccc3)CC2)cc1)c1ccccc1 | > 66 µM
